- PROTOCOL: Toxicokinetic assessment of systemic exposure in minipigs following dermal administration
- Assay type: in vivo
- EXPERIMENTAL CONDITIONS: female, Göttingen, minipig, plasma, topical or ocular, 6 mg/kg/day, Day 28, Female, 6 mg/kg/day, 0.3% gel
REPORTED METRIC: Cmax (ng/mL)

>>> df
                                   compound  measured_value
0  Cc1nc(C)c(-c2ccc([C@H]3CC[C@H](CC(=O)O)CC3)cc2)nc1C(N)=O [DMVT-503]             487

* * *

- PROTOCOL: Toxicokinetic assessment of systemic exposure in minipigs following dermal administration
- Assay type: in vivo
- EXPERIMENTAL CONDITIONS: male, Göttingen, minipig, plasma, topical or ocular, 2 mg/kg/day, Median (Min-Max), Day 28, Male, 2 mg/kg/day, 0.1% gel
REPORTED METRIC: Tmax (h)

>>> df
                               entry_smiles  endpoint_unit  measured_value
0  Cc1nc(C)c(-c2ccc([C@H]3CC[C@H](CC(=O)O)CC3)cc2)nc1C(N)=O              h               0

* * *

- PROTOCOL: Toxicokinetic assessment of systemic exposure in minipigs following dermal administration
- Assay type: in vivo
- EXPERIMENTAL CONDITIONS: female, Göttingen, minipig, plasma, topical or ocular, 2 mg/kg/day, Day 1, Female, 2 mg/kg/day, 0.1% gel, read-out: AUC0-24
REPORTED METRIC: AUC(0-t)

In [3]: df
Out[3]:
                               entry_smiles  reported_metric  measured_value
0  Cc1nc(C)c(-c2ccc([C@H]3CC[C@H](CC(=O)O)CC3)cc2)nc1C(N)=O         AUC(0-t)     323 ng·h/mL
